Test system: Staphylococcus aureus
Method Description: microbe, parasite or virus in culture
Experimental Setup: ATCC 25923
Description: Minimum inhibitory concentration (MIC) was measured against Staphylococcus aureus ATCC 25923.
Quick reference for MIC among some compounds
Expressed in µg/mL, but write only the number.

Worked cases, answers included:
Compound: NCC[C@H](O)C(=O)N[C@@H]1C[C@H](N)[C@@H](O[C@H]2O[C@H](CN)[C@@H](O)[C@H](O)[C@H]2O)[C@H](O)[C@H]1O[C@H]1O[C@H](CO)[C@@H](O)[C@H](N)[C@H]1O
Assay Target: Staphylococcus aureus
Unit Spec: µg/mL
MIC: 4
//
Compound: CCNC1CC(N)C(OC2OC(CNC(=O)C(C)N)=CCC2N)C(O)C1OC1OCC(C)(O)C(NC)C1O (stereo unspecified)
Assay Target: Staphylococcus aureus
Unit Spec: µg/mL
MIC: 32
//
Compound: CC(N)C(=O)NC1CC(N)C(OC2OC(CN)C(O)C(O)C2O)C(O)C1OC1OC(CO)C(O)C(N)C1O (stereo unspecified)
Assay Target: Staphylococcus aureus
Unit Spec: µg/mL
MIC: 16

*Q* Form entry - test system: Staphylococcus aureus; read-out: MIC; compound: CN[C@@H]1[C@@H](O)[C@@H](O[C@@H]2[C@@H](O)[C@H](O[C@H]3O[C@H](CN)[C@@H](O)[C@H](O)[C@H]3O)[C@@H](N)C[C@H]2NC(=O)[C@@H](O)CN)OC[C@]1(C)O
*A* 4

*Q* Similarly, NC[C@H]1O[C@H](O[C@H]2[C@H](O)[C@@H](O[C@H]3O[C@H](CO)[C@@H](O)[C@H](N)[C@H]3O)[C@H](N)C[C@@H]2N)[C@H](O)[C@@H](O)[C@@H]1O ?
*A* 1

*Q* Similarly, CCN[C@@H]1C[C@H](N)[C@@H](O[C@H]2OC(CN)=CC[C@H]2N)[C@H](O)[C@H]1O[C@H]1OC[C@](C)(O)[C@H](NC)[C@H]1O ?
*A* 0.25

---

Quick reference for MIC among some compounds
Tested on: Escherichia coli
Method Description: Minimum inhibitory concentration (MIC) was measured against Escherichia coli ATCC 25922.
Type: functional
Write the numeric value and append its unit.

Worked cases, answers included:
Compound: CCN[C@@H]1C[C@H](N)[C@@H](O[C@H]2OC(CN)=CC[C@H]2N)[C@H](O)[C@H]1O[C@H]1OC[C@](C)(O)[C@H](NC)[C@H]1O [NETILMICIN]
MIC: 1 µg/mL

Compound: NCC[C@H](O)C(=O)N[C@@H]1C[C@H](N)[C@@H](O[C@H]2O[C@H](CN)[C@@H](O)[C@H](O)[C@H]2O)[C@H](O)[C@H]1O[C@H]1O[C@H](CO)[C@@H](O)[C@H](N)[C@H]1O [AMIKACIN]
MIC: 8 µg/mL

Compound: CC(N)C(=O)NC1CC(N)C(OC2OC(CN)C(O)C(O)C2O)C(O)C1OC1OC(CO)C(O)C(N)C1O (stereo unspecified)
MIC: 128 µg/mL

Compound: CN[C@@H]1[C@@H](O)[C@@H](O[C@@H]2[C@@H](O)[C@H](O[C@H]3O[C@H](CN)[C@@H](O)[C@H](O)[C@H]3O)[C@@H](N)C[C@H]2NC(=O)[C@@H](O)CN)OC[C@]1(C)O [ISEPAMICIN]
MIC: 8 µg/mL

Compound: CCNC1CC(N)C(OC2OC(CNC(=O)C(C)N)=CCC2N)C(O)C1OC1OCC(C)(O)C(NC)C1O (stereo unspecified)
MIC: 128 µg/mL

*Q* Form entry - test system: Escherichia coli; read-out: MIC; compound: NC[C@H]1O[C@H](O[C@H]2[C@H](O)[C@@H](O[C@H]3O[C@H](CO)[C@@H](O)[C@H](N)[C@H]3O)[C@H](N)C[C@@H]2N)[C@H](O)[C@@H](O)[C@@H]1O [KANAMYCIN]
*A* 8 µg/mL

Every entry's value here was drawn from ChEMBL document CHEMBL1128666.
